System: TO-3-N3 (biotin conjugate)
protocol.text: pull-down binding Z-score (relative to library population); higher = stronger binding
condition.label: RNA library: Library-2
Threshold rule: pull-down binding Z-score greater than or equal to -0.4 is yes (1); below that, no (0).

Task item: Could you tell me if the measured pull-down binding Z-score of UUGAUGUCAGGUUAUCCCCAAGCAUAACCUCAC [hsa-mir-4639] reaches -0.4 or more?
Reply: no (0)

Task item: Could you tell me if the measured pull-down binding Z-score of UGCCGACUACUAUAGCAAAGAAUACUGUUAAGAGUGUCGGUA reaches -0.4 or more?
Reply: yes (1)

Task item: Could you tell me if the measured pull-down binding Z-score of CUGUUUGGAUGACAG reaches -0.4 or more?
Reply: no (0)

Task item: Could you tell me if the measured pull-down binding Z-score of GACCGUUGGCAUCUUAAUUACCCUC [hsa-mir-532] reaches -0.4 or more?
Reply: no (0)

Task item: Could you tell me if the measured pull-down binding Z-score of UGAGGUUUACUAUGGAACCUCA [hsa-mir-4465] reaches -0.4 or more?
Reply: no (0)

Task item: Could you tell me if the measured pull-down binding Z-score of GCUGGGGGUAAAUGACUUGCACAUGAACACAAC [hsa-mir-708] reaches -0.4 or more?
Reply: yes (1)

Task item: Could you tell me if the measured pull-down binding Z-score of CAGCCCGUGGUGGGG [hsa-mir-3619] reaches -0.4 or more?
Reply: yes (1)

Task item: Could you tell me if the measured pull-down binding Z-score of GUGCUAAUGACCCUGUGGGUUUUACAC [SHAPE_invivo_SARS-CoV-2_Motif_252] reaches -0.4 or more?
Reply: yes (1)

Task item: Could you tell me if the measured pull-down binding Z-score of ACUAAAAUAAAACCUCAUAAUUCACAUGAAGGUAAAACAUUUUAUGUUUUACCUAAUGAUGACACUCUACGUGUUGAGGCUUUUGAGU [DMSMaPseq_invitro_SARS-CoV-2_Multi_18_ComplexLevel_1] reaches -0.4 or more?
Reply: no (0)

----------
Please go through the items and note down their pull-down binding Z-score.
System: TO-N3-2 (biotin conjugate)
protocol.text: pull-down binding Z-score (relative to library population); higher = stronger binding
condition.label: RNA library: Library-2
Reply: number alone, nothing else.

Task item: Would you kindly share the measured pull-down binding Z-score for UAGUUUUAAGGAAUUA ?
Reply: -1.56

Task item: Would you kindly share the measured pull-down binding Z-score for CGUUUAGUAGAUGAUUGUGCAUUGUUUCAAAAUG [hsa-mir-224] ?
Reply: -0.183

Task item: Would you kindly share the measured pull-down binding Z-score for AUUCUGGAGUCCAUCUAGAG [hsa-mir-1182] ?
Reply: -0.297

Task item: Would you kindly share the measured pull-down binding Z-score for UAGUGAUGAAGUUGCGAGAGACUUGUCACUA ?
Reply: -0.661

Task item: Would you kindly share the measured pull-down binding Z-score for GAGGUUGCAGUGAGCCAAGAUCGUG [hsa-mir-4459] ?
Reply: 1.33

Task item: Would you kindly share the measured pull-down binding Z-score for AUUCUGGCUAGGUGAUCAUCAGAAU [hsa-mir-5583-1] ?
Reply: -0.726

Task item: Would you kindly share the measured pull-down binding Z-score for GGAGGGCCUUCUACGGAAGGAGUGCC [IAV_invivo_M1_M2_7_Motif_16+IAV_invivo_M1_M2_7_Motif_16] ?
Reply: 1.57

Task item: Would you kindly share the measured pull-down binding Z-score for UGGCAAUUCAGUAAAAAUGCUCA [hsa-mir-6715b] ?
Reply: 0.143

Task item: Would you kindly share the measured pull-down binding Z-score for GUUACGACUAUUGUAUACCUUACAAUAGUGUAAC ?
Reply: 0.142

Task item: Would you kindly share the measured pull-down binding Z-score for UACUGGUUCUAUACCUUGUA [SARS-CoV-2-Conserved-Structured-4_Interval-7011-7130_Motif_3] ?
Reply: -0.722

----------
Please go through the items and note down their pull-down binding Z-score.
Test system: TO-N3 (biotin conjugate)
protocol.text: pull-down binding Z-score (relative to library population); higher = stronger binding
condition.label: RNA library: Library-2
Reply: number alone, nothing else.

Task item: Would you kindly share the measured pull-down binding Z-score for UGCGAGAAAUGCUUGCA [SHAPE_invitro_SARS-CoV-2_Motif_85] ?
Reply: 0.918

Task item: Would you kindly share the measured pull-down binding Z-score for GGAAUUUGAACC [IAV_invivo_PB2_1_Motif_28+IAV_invivo_PB2_1_Motif_28] ?
Reply: 0.0885

Task item: Would you kindly share the measured pull-down binding Z-score for CAACUACUCAGGAGGCUG [hsa-mir-566] ?
Reply: 0.0834

Task item: Would you kindly share the measured pull-down binding Z-score for ACAGUCUGUACCGUCUGCGGUAUGUGGAAAGGUUAUGGCUGU ?
Reply: -0.273

Task item: Would you kindly share the measured pull-down binding Z-score for UAGCGUGCCUUUGUAAGCACAAGCUG ?
Reply: 0.57

Task item: Would you kindly share the measured pull-down binding Z-score for CCCUGAACACAAUGACCAAAGAUGCUGAGAGAGGG [IAV_invivo_PB1_2_Motif_12+IAV_invivo_PB1_2_Motif_12] ?
Reply: 0.143

Task item: Would you kindly share the measured pull-down binding Z-score for ACCUCGUCUAUGCUUUAAGGCAUUUUGAUGAAGGU ?
Reply: -0.152

Task item: Would you kindly share the measured pull-down binding Z-score for GUUCUCAGUACAGAGAAAUCUCCCUUUUGACAGAACAACCAUUAUGGCAGCAUUCAAUGGGAAUACAGAGGGGAGAACAUCUGACAUGAGGAC [IAV_invivo_NP_5_Motif_22+IAV_invivo_NP_5_Motif_22] ?
Reply: 1.12

Task item: Would you kindly share the measured pull-down binding Z-score for GGACCUGAGCGCACCUGUUGUCU [SHAPE_invivo_SARS-CoV-2_Motif_351] ?
Reply: 1.58

----------
System: TO-N3-2 (biotin conjugate)
protocol.text: pull-down binding Z-score (relative to library population); higher = stronger binding
condition.label: RNA library: Library-2
attribute.measured: pull-down binding Z-score
Reply: number alone, nothing else.

Task item: Lookup: pull-down binding Z-score / TO-N3-2 (biotin conjugate) / AAUGCAUAGAAAGCAUU [hsa-mir-4272]
Reply: -0.629

Task item: Lookup: pull-down binding Z-score / TO-N3-2 (biotin conjugate) / GCUGUGAGUUGGAUACUUACCUG [U1snRNP5ss-13]
Reply: 1.38

Task item: Lookup: pull-down binding Z-score / TO-N3-2 (biotin conjugate) / AUUUCUGUAGCUCUGAGACUAGACCU [hsa-mir-544b]
Reply: 0.409

Task item: Lookup: pull-down binding Z-score / TO-N3-2 (biotin conjugate) / UUCUGUGGUUUGAAAGGAA [hsa-mir-1323]
Reply: -0.252

Hey, just so you know, these numbers are from the supplement of paper PMC11865577.
